Quick reference: solubility at 30 min of the listed items.
- Assay Summary: Solubility of coloring agent in PGMEA
- Format: physicochemical
- Cond: propylene glycol methyl ether acetate (PGMEA), organic solvent or mixture, thermodynamic from solid, approx. 100 mg in 1 L propylene glycol methyl ether acetate at 25° C., stirred 30 minutes
Measured Property: solubility at 30 min

| Compound | Result |
| --- | --- |
| O=C1C(c2ccc3cccc4c3c2NC2(N4)c3ccccc3-c3ccccc32)=C(O)C1C1C=Cc2cccc3c2C1=NC1(N3)c2ccccc2-c2ccccc21 (centres unmarked) [compound 3, reference compound] | < 10 µg/mL |
| O=C1C(c2ccc3cccc4c3c2NC2(N4)c3ccccc3-c3ccc(OC(=O)c4ccc(C(=O)Oc5ccc6c(c5)C5(N=c7/c(=C8/C(=O)C(c9ccc%10cccc%11c%10c9NC9(N%11)c%10ccccc%10-c%10ccccc%109)=C8O)ccc8cccc(c78)N5)c5ccccc5-6)cc4)cc32)=C(O)/C1=c1/ccc2cccc3c2c1=NC1(N3)c2ccccc2-c2ccccc21 (centres unmarked) | < 10 µg/mL |
| CC(=O)Nc1cc2c(cc1C1=C([O-])/C(=c3/cc4c(cc3NC(=O)c3ccc(C(=O)Nc5cc6c(cc5C5=C([O-])/C(=c7/cc8c(cc7NC(C)=O)=[N+](C)C(C)C8(C)C)C5=O)C(C)(C)C(C)N6C)cc3)=[N+](C)C(C)C4(C)C)C1=O)C(C)(C)C(C)N2C (centres unmarked) | < 10 µg/mL |
| O=C1C(=O)/C(=C2/C=CC(=[N+]3CCC(C(=O)Oc4ccc(OC(=O)C5CC[N+](=C6C=C/C(=C7/C(=O)C(=O)C(c8ccc(N9CCC(C(=O)O)CC9)s8)=C7[O-])S6)CC5)cc4)CC3)S2)C([O-])=C1c1ccc(N2CCC(C(=O)O)CC2)s1 (centres unmarked) | 50 to 100 µg/mL |
| O=C1C(c2ccc3cccc4c3c2NB(c2ccc(-c3ccc(B5Nc6cccc7ccc(C8=C(O)/C(=c9/ccc%10cccc%11c%10c9=NB(c9ccccc9)N%11)C8=O)c(c67)N5)cc3)cc2)N4)=C(O)/C1=c1/ccc2cccc3c2c1=NB(c1ccccc1)N3 | < 10 µg/mL |
